Tested on: Enterococcus faecalis
Assay: Antibacterial activity against Enterococcus faecalis ATCC 29212 by visual method
Format: functional
Would you kindly list MIC for each of these molecules?

Form field MIC, entry `C[C@@H](O)[C@H](N)C(=O)NS(=O)(=O)c1cccc(-c2ccc3[nH]ncc3c2)c1` : > 256 µg/mL

Form field MIC, entry `C[C@@H](O)[C@H](N)C(=O)NC/C=C/Cn1cnc2cc(Br)c(Cl)cc2c1=O` : 64 µg/mL

Form field MIC, entry O=C(CC1NCCCC1O)Cn1cnc2cc(Br)c(Cl)cc2c1=O (stereo not given) [HALOFUGINONE] : 128 µg/mL

Form field MIC, entry `C[C@@H](O)[C@H](N)C(=O)NC/C=C/Cn1cnc2cc(Cl)c(Cl)cc2c1=O` : 32 µg/mL

Form field MIC, entry CN[C@H](CC(C)C)C(=O)N[C@H]1C(=O)N[C@@H](CC(N)=O)C(=O)N[C@H]2C(=O)N[C@H]3C(=O)N[C@H](C(=O)N[C@H](C(=O)O)c4cc(O)cc(O)c4-c4cc3ccc4O)[C@H](O)c3ccc(c(Cl)c3)Oc3cc2cc(c3O[C@@H]2O[C@H](CO)[C@@H](O)[C@H](O)[C@H]2O[C@H]2C[C@](C)(N)[C@H](O)[C@H](C)O2)Oc2ccc(cc2Cl)[C@H]1O [VANCOMYCIN] : 2 µg/mL

----------
Test system: Salmonella enterica
Experiment: Inhibition of Salmonella enterica Threonyl-tRNA synthetase assessed as reduction in aminoacylation activity at 100 uM using L-threonine as substrate incubated for 3 hrs by Kinase-glo luminescence assay relative to control
VALUE_TYPE: inhibition

Form field inhibition, entry `C[C@@H](O)[C@H](N)C(=O)N1CCC(Cn2cnc3cc(Br)c(Cl)cc3c2=O)CC1` : 23%

Form field inhibition, entry `C[C@@H](O)[C@H](N)C(=O)NCCCCCn1cnc2cc(Br)c(Cl)cc2c1=O` : 87%

Form field inhibition, entry `C[C@@H](O)[C@H](N)C(=O)NC/C=C/Cn1cnc2ccccc2c1=O` : 15%

Form field inhibition, entry `C[C@@H](O)[C@H](N)C(=O)NC/C=C/Cn1cnc2cc(Br)c(Cl)cc2c1=O` : 99%

Form field inhibition, entry `C[C@@H](O)[C@H](N)C(=O)OCCCCn1cnc2cc(Br)c(Cl)cc2c1=O` : 42%

Form field inhibition, entry `C[C@@H](O)[C@H](N)C(=O)NC/C=C/Cn1cnc2cc(F)c(F)cc2c1=O` : 77%

Form field inhibition, entry `C[C@@H](O)[C@H](N)C(=O)OCCCn1cnc2cc(Br)c(Cl)cc2c1=O` : 0%

Form field inhibition, entry `C[C@@H](O)[C@H](N)C(=O)OCCCCCCn1cnc2cc(Br)c(Cl)cc2c1=O` : 32%

Form field inhibition, entry `C[C@@H](O)[C@H](N)C(=O)NS(=O)(=O)c1cccc(-c2ccc3[nH]ncc3c2)c1` : 100%

Form field inhibition, entry `C[C@@H](O)[C@H](N)C(=O)NC/C=C/Cn1cnc2cnc(Cl)cc2c1=O` : 68%

Form field inhibition, entry `C[C@@H](O)[C@H](N)C(=O)OCCCCCn1cnc2cc(Br)c(Cl)cc2c1=O` : 30%

Form field inhibition, entry `COc1cc2ncn(C/C=C/CNC(=O)[C@@H](N)[C@@H](C)O)c(=O)c2cc1OC` : 0%

Form field inhibition, entry `C[C@@H](O)[C@H](N)C(=O)NCCCCCCn1cnc2cc(Br)c(Cl)cc2c1=O` : 96%

Form field inhibition, entry O=C(CC1NCCCC1O)Cn1cnc2cc(Br)c(Cl)cc2c1=O (stereo not drawn) : 5%

Form field inhibition, entry `C[C@@H](O)[C@H](N)C(=O)OC/C=C/Cn1cnc2cc(Br)c(Cl)cc2c1=O` : 96%

Form field inhibition, entry `C[C@@H](O)[C@H](N)C(=O)NC/C=C/Cn1cnc2cc3c(cc2c1=O)OCO3` : 5%

Form field inhibition, entry `Cc1cc2ncn(C/C=C/CNC(=O)[C@@H](N)[C@@H](C)O)c(=O)c2cc1C` : 7%

Form field inhibition, entry `C[C@@H](O)[C@H](N)C(=O)NC/C=C/Cn1cnc2cc3c(cc2c1=O)OCCO3` : 0%

Form field inhibition, entry `C[C@@H](O)[C@H](N)C(=O)NC/C=C/Cn1cnc2cc(Cl)c(Cl)cc2c1=O` : 101%

Form field inhibition, entry `C[C@@H](O)[C@H](N)C(=O)NC/C=C/Cn1cnc2cc3ccccc3cc2c1=O` : 70%

Form field inhibition, entry `C[C@@H](O)[C@H](N)C(=O)NC/C=C/Cn1cnc2cnc(F)cc2c1=O` : 36%

Form field inhibition, entry `C[C@@H](O)[C@H](N)C(=O)NC/C=C/Cn1cnc2cc(C(F)(F)F)ccc2c1=O` : 21%

Form field inhibition, entry `COc1cc2c(=O)n(C/C=C/CNC(=O)[C@@H](N)[C@@H](C)O)cnc2cn1` : 17%

Form field inhibition, entry `C[C@@H](O)[C@H](N)C(=O)NC/C=C/Cn1cnc2cc(Cl)ncc2c1=O` : 34%

Form field inhibition, entry `C[C@@H](O)[C@H](N)C(=O)NC/C=C/Cn1cnc2cc(Br)c(Br)cc2c1=O` : 100%

Form field inhibition, entry `C[C@@H](O)[C@H](N)C(=O)N1CCC(C(=O)Cn2cnc3cc(Br)c(Cl)cc3c2=O)CC1` : 0%

Form field inhibition, entry `C[C@@H](O)[C@H](N)C(=O)NC/C=C/Cn1cnc2cc(Cl)c([N+](=O)[O-])cc2c1=O` : 0%

Form field inhibition, entry `C[C@@H](O)[C@H](N)C(=O)NC/C=C/Cn1cnc2cc(Cl)c(F)cc2c1=O` : 93%
